- measured on: B1R of the rat (Rattus norvegicus)
- Construct: expressed in transfected cells; host or cells: CHO K1 cells (rB1R cells)
- method description: FLIPR Ca2+ influx assay, B1R antagonism, rat (rB1R CHO K1 cells)
- Assay type: cell-based
- particulars: test substance 10 μM; CHO K1 cells stably transfected with rat B1R; agonist Des-Arg9-bradykinin at EC80; % inhibition compared with maximum achievable inhibition
measured attribute: B1R antagonism, rat [10 μM] % inhibition (%)

- COc1cc(C)c(S(=O)(=O)N(C)CCOCC(=O)N2CCC(CCCN3CCCC3)(c3cccnc3)CC2)c(C)c1 [Example 29]: 101
- COc1cc(C)c(S(=O)(=O)N2CCCCC2CCOCC(=O)N2CCC(CCCN3CCCC3)(c3cccnc3)CC2)c(C)c1 (stereo not drawn) [Example 46]: 101
- O=C(COCC1COc2ccccc2N1S(=O)(=O)c1ccccc1C(F)(F)F)N1CCC(CCCN2CCCC2)(c2cccnc2)CC1 (stereo not drawn) [Example 74]: 93
- O=C(CCCC1CCCCN1S(=O)(=O)c1ccccc1C(F)(F)F)N1CCC(CCCN2CCCC2)(c2ccncc2)CC1 (stereo not drawn) [Example 59]: 101
- COc1cc(C)c(S(=O)(=O)N2c3ccccc3OCC2COCC(=O)N2CCC(CCCN3CCCC3)(c3cccnc3)CC2)c(C)c1 (stereo not drawn) [Example 68]: 101
- COc1cc(C)c(S(=O)(=O)N2c3ccccc3OCC2COCC(=O)N2CCC(CCCN3CCCC3)(c3ccncc3)CC2)c(C)c1 (stereo not drawn) [Example 70]: 100

###

- measured on: human B1R (Homo sapiens, UniProt P46663)
- Construct: expressed in transfected cells; host or cells: CHO K1 cells (hB1R cells)
- Sequence (P46663 whole entry): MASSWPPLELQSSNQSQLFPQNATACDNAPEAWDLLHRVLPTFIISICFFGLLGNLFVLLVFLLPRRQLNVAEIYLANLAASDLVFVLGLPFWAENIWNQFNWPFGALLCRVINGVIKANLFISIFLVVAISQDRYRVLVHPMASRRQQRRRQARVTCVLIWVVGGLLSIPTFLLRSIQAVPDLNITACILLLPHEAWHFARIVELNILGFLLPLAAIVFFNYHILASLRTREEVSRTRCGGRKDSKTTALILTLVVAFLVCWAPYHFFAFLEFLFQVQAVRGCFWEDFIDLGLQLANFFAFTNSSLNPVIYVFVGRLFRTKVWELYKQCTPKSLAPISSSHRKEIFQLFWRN
- method description: FLIPR Ca2+ influx assay, B1R antagonism, human (hB1R CHO K1 cells)
- Format: cell-based
- particulars: test substance 10 μM; CHO K1 cells stably transfected with human B1R; agonist Lys-Des-Arg9-bradykinin at EC80; % inhibition compared with maximum achievable inhibition; read-out: B1R antagonism, human [10 μM] % inhibition
measured attribute: inhibition at 10 µM (%)

* COc1cc(C)c(S(=O)(=O)N(CCOCC(=O)N2CCC(CCCN3CCCC3)(c3cccnc3)CC2)c2ccccc2)c(C)c1 [Example 48] | 100
* O=C(CC(NS(=O)(=O)c1ccc2ccccc2c1)c1ccccc1)N1CCC(CCN2CCCC2)(c2cccnc2)CC1 (stereo not shown) [Example 1] | 104
* Cc1cc(S(=O)(=O)N2CCCCC2CCC(=O)N2CCC(CCCN(C)C)(c3cccnc3)CC2)c(C)cc1Cl (stereo not shown) [Example 19] | 82
* COc1cc(C)c(S(=O)(=O)N2CCCCC2COCC(=O)N2CCC(CCCN(C)C)(c3cccnc3)CC2)c(C)c1 (stereo not shown) [Example 22] | 98

###

- measured on: B1R of the rat (Rattus norvegicus, UniProt P97583)
- Construct: expressed in transfected cells; host or cells: CHO K1 cells (rB1R cells)
- method description: FLIPR Ca2+ influx assay, B1R antagonism, rat (rB1R CHO K1 cells)
- Format: cell-based
- particulars: test substance 10 μM; CHO K1 cells stably transfected with rat B1R; agonist Des-Arg9-bradykinin at EC80; % inhibition compared with maximum achievable inhibition; read-out: B1R antagonism, rat [10 μM] % inhibition
measured attribute: inhibition at 10 µM (%)

* O=C(COCC1CCc2ccccc2N1S(=O)(=O)c1ccc(Cl)c(Cl)c1)N1CCC(CCCN2CCCC2)(c2cccnc2)CC1 (stereo not drawn) [Example 18] | 102
* Cc1cc(S(=O)(=O)N2CCCCC2CCC(=O)N2CCC(CCN3CCCC3)(c3cccnc3)CC2)c(C)cc1Cl (stereo not drawn) [Example 5] | 61
* O=C(COCC1CCc2ccccc2N1S(=O)(=O)c1ccc2ccccc2c1)N1CCC(CCCN2CCCC2)(c2cccnc2)CC1 (stereo not drawn) [Example 51] | 80

###

- measured on: B1R of the rat (Rattus norvegicus, UniProt P97583)
- Construct: expressed in transfected cells; host or cells: CHO K1 cells (rB1R cells)
- Sequence (P97583 1-337): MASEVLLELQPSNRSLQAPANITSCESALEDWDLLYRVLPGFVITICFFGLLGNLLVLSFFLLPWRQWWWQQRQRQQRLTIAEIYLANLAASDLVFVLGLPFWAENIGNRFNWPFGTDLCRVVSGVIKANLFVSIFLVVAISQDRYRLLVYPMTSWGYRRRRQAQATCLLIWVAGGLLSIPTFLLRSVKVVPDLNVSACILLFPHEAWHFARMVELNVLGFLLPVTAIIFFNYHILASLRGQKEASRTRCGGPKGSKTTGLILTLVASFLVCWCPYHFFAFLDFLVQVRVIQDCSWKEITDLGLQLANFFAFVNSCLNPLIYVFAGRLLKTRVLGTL
- method description: FLIPR Ca2+ influx assay, B1R antagonism, rat (rB1R CHO K1 cells)
- Assay type: cell-based
- particulars: test substance 10 μM; CHO K1 cells stably transfected with rat B1R; agonist Des-Arg9-bradykinin at EC80; % inhibition compared with maximum achievable inhibition; read-out: B1R antagonism, rat [10 μM] % inhibition
measured attribute: inhibition at 10 µM (%)

• COc1cc(C)c(S(=O)(=O)N(CCOCC(=O)N2CCC(CCCN3CCCC3)(c3ccncc3)CC2)c2ccccc2)c(C)c1 = 100
• Cc1cccc(Cl)c1S(=O)(=O)N(CCOCC(=O)N1CCC(CCCN2CCCC2)(c2cccc(C(F)(F)F)c2)CC1)C1CC1 = 92
• COc1cc(C)c(S(=O)(=O)N2CCCCC2CCCC(=O)N2CCC(CCCN3CCCC3)(c3ccncc3)CC2)c(C)c1 (stereo not shown) = 100
• CN(C)CCCC1(c2cccnc2)CCN(C(=O)COCC2CCc3ccccc3N2S(=O)(=O)c2ccc(Cl)c(Cl)c2)CC1 (stereo not shown) = 98
• O=C(COCC1CCCCN1S(=O)(=O)c1ccccc1C(F)(F)F)N1CCC(CCCN2CCCC2)(c2ccncc2)CC1 (stereo not shown) = 101

[a] COc1cc(C)c(S(=O)(=O)N2CCCCC2COCC(=O)N2CCC(CCCN3CCCC3)(c3ccncc3)CC2)c(C)c1 (stereo not shown)
[b] O=C(CC1CCCCN1S(=O)(=O)c1cccc(C(F)(F)F)c1)N1CCC(CCCN2CCCC2)(c2cccnc2)CC1 (stereo not shown)
Please indicate which has the smaller reported inhibition at 10 µM: a , or b . State your choice using its label.
b
(b: 64%, a: 97%)

###

- measured on: B1R of the rat (Rattus norvegicus, UniProt P97583)
- Construct: expressed in transfected cells; host or cells: CHO K1 cells (rB1R cells)
- Sequence (P97583 1-337): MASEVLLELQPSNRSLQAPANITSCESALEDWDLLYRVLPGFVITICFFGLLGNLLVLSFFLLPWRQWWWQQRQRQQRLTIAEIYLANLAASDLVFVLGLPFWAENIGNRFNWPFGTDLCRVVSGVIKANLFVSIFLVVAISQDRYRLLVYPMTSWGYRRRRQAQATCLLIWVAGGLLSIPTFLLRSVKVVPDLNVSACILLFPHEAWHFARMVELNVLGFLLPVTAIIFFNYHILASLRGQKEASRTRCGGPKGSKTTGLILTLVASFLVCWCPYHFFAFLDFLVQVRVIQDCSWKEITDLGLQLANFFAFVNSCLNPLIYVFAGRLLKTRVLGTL
- method description: FLIPR Ca2+ influx assay, B1R antagonism, rat (rB1R CHO K1 cells)
- Assay type: cell-based
- particulars: test substance 10 μM; CHO K1 cells stably transfected with rat B1R; agonist Des-Arg9-bradykinin at EC80; % inhibition compared with maximum achievable inhibition
- Excerpt: The agonistic or antagonistic action of substances can be quantified on the bradykinin receptor 1 (B1R) of the species human and rat using ectopically expressing cell lines (CHO K1 cells) and with the aid of a Ca^2+-sensitive dye (Fluo-4) using a fluorescent imaging plate reader (FLIPR). […] The agonistic or antagonistic action of substances can be determined on the bradykinin receptor 1 (B1R) of the species human and rat using the following assay. […]
measured attribute: B1R antagonism, rat [10 μM] % inhibition (%)

* O=C(COCC1CCc2ccccc2N1S(=O)(=O)c1ccc2ccccc2c1)N1CCC(CCCN2CCCC2)(c2cccnc2)CC1 (stereo not shown) | 83
* COc1cc(C)c(S(=O)(=O)N2CCCCC2COCC(=O)N2CCC(CCCN3CCCC3)(c3cccnc3)CC2)c(C)c1 (stereo not shown) [Example 26] | 103
* COc1cc(C)c(S(=O)(=O)N2CCCCC2CCCC(=O)N2CCC(CCCN3CCCC3)(c3cccnc3)CC2)c(C)c1 (stereo not shown) | 103
* O=C(COCC1CCCCN1S(=O)(=O)c1ccccc1C(F)(F)F)N1CCC(CCCN2CCCC2)(c2cccnc2)CC1 (stereo not shown) | 102

###

- measured on: human B1R (Homo sapiens)
- Construct: expressed in transfected cells; host or cells: CHO K1 cells (hB1R cells)
- method description: FLIPR Ca2+ influx assay, B1R antagonism, human (hB1R CHO K1 cells)
- Format: cell-based
- particulars: test substance 10 μM; CHO K1 cells stably transfected with human B1R; agonist Lys-Des-Arg9-bradykinin at EC80; % inhibition compared with maximum achievable inhibition
- Description: The agonistic or antagonistic action of substances can be quantified on the bradykinin receptor 1 (B1R) of the species human and rat using ectopically expressing cell lines (CHO K1 cells) and with the aid of a Ca^2+-sensitive dye (Fluo-4) using a fluorescent imaging plate reader (FLIPR). […] The agonistic or antagonistic action of substances can be determined on the bradykinin receptor 1 (B1R) of the species human and rat using the following assay. […]
measured attribute: B1R antagonism, human [10 μM] % inhibition (%)

* COc1cc(C)c(S(=O)(=O)N2c3ccccc3CCC2COCC(=O)N2CCC(CCCN3CCCC3)(c3cccnc3)CC2)c(C)c1 (centres unmarked) | 100
* COc1cc(C)c(S(=O)(=O)N2CCCCC2CCCC(=O)N2CCC(CCCN3CCCC3)(c3cccnc3)CC2)c(C)c1 (centres unmarked) | 100
* COc1cc(C)c(S(=O)(=O)N2CCCCC2COCC(=O)N2CCC(CCCN3CCCC3)(c3cccnc3)CC2)c(C)c1 (centres unmarked) [Example 26] | 100
* COc1cc(C)c(S(=O)(=O)N2c3ccccc3OCC2COCC(=O)N2CCC(CCCN3CCCC3)(c3cccnc3)CC2)c(C)c1 (centres unmarked) | 100
* O=C(COCC1CCCCN1S(=O)(=O)c1ccccc1C(F)(F)F)N1CCC(CCCN2CCCC2)(c2cccnc2)CC1 (centres unmarked) | 100
* COc1cc(C)c(S(=O)(=O)N(CCOCC(=O)N2CCC(CCCN3CCCC3)(c3cccnc3)CC2)Cc2ccccc2)c(C)c1 | 100
* COc1cc(C)c(S(=O)(=O)N(C)CCOCC(=O)N2CCC(CCCN3CCCC3)(c3cccnc3)CC2)c(C)c1 | 100
* COc1cc(C)c(S(=O)(=O)N2CCCCC2COCC(=O)N2CCC(CCCN3CCCC3)(c3cccnc3)CC2)c(C)c1 (centres unmarked) [Example 27] | 100
